TEST_TARGET: UniProt:C3L5T6
Sequence (C3L5T6 whole entry, looked up): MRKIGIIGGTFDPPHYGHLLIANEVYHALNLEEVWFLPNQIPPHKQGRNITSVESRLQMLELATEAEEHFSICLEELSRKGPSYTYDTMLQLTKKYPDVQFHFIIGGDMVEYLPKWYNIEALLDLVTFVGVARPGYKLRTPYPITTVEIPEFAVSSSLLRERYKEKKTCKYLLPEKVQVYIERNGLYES
ASSAY_METHOD_TEXT: biochemical
Format: biochemical
[…]. anthracis by entry:
MEASURED_PROPERTY: […]. anthracis (%)

>>> df
                                    molecule     test_target  measured_value
 0      O=C(CSS(=O)(=O)O)NCCc1c[nH]c2ccccc12  UniProt:C3L5T6               0
 1  Nc1nc(-c2cc([N+](=O)[O-])cc([N+](=O)[O-])c2)n[nH]1  UniProt:C3L5T6               7
 2  O=C(/C=C/c1ccc2c(c1)OCO2)Nc1ncc([N+](=O)[O-])s1  UniProt:C3L5T6              10
 3      NS(=O)(=O)c1ccc(NC(=O)CCc2ccccc2)cc1  UniProt:C3L5T6               0
 4          C=CCNC(=O)c1cc(-c2ccc(Br)cc2)on1  UniProt:C3L5T6               0
 5            O=C(O)c1cccc(-n2nc(O)ccc2=O)c1  UniProt:C3L5T6              19
 6      Cc1ccc(C(=O)N/N=C/c2ccc(O)c(I)c2)cn1  UniProt:C3L5T6              12
 7       O=C(O)c1ccc(-n2ncc(Cl)c(Cl)c2=O)cc1  UniProt:C3L5T6               0
 8             O=C(Nc1ncccn1)c1sc2ccccc2c1Cl  UniProt:C3L5T6               0
 9  CC(Sc1ccccc1)C(=O)Nc1ccccc1C(=O)O (centres unmarked)  UniProt:C3L5T6              15
10  CC(C)COC1CS(=O)(=O)CC1OCC(C)C (centres unmarked)  UniProt:C3L5T6              20
11   NS(=O)(=O)c1ccc2nc(NC(=O)c3ccncc3)sc2c1  UniProt:C3L5T6               0
12  O=C(O)c1ccc([N+](=O)[O-])cc1C(=O)Nc1ccc(Cl)cc1  UniProt:C3L5T6              75
13       O=C(O)c1[nH]c2ccc(Cl)cc2c1-c1ccccc1  UniProt:C3L5T6              40
14        COc1cc(Br)cc(/C=C2/SC(=S)NC2=O)c1O  UniProt:C3L5T6               0
15     CSc1ccc(/C=N/c2ccc(S(N)(=O)=O)cc2)cc1  UniProt:C3L5T6               0
16     Cc1ccc(NS(=O)(=O)c2coc(C(N)=O)c2)cc1F  UniProt:C3L5T6               0
17  COc1cccc(C=C2C(=O)NC(=O)NC2=O)c1OCC(=O)O  UniProt:C3L5T6              13
18         Cc1ccc(S(=O)(=O)/N=C/c2cccnc2)cc1  UniProt:C3L5T6               0
19  COc1cc(/C=N/c2ccc3[nH]c(=O)[nH]c3c2)ccc1OC(C)=O  UniProt:C3L5T6               0

----------
Test system: B. subtilis 168
ASSAY_METHOD_TEXT: microbe, parasite or virus in culture
Assay type: cell-based
MEASUREMENT_PARAMETERS: Bacillus subtilis, 168, read-out: MIC50 B. subt
Quick reference for MIC50 among some compounds
MEASURED_PROPERTY: MIC50 (µM)

>>> print(df.to_string())
                         chemical_structure  measured_property  inequality_operator  measured_value
0   COC(=O)c1ccc(N/C=C2\C(=O)Nc3ccccc32)cc1              MIC50                    <              50
1  Nc1c(C(=O)Nc2cccc(F)c2)sc2nc(-c3cccs3)ccc12              MIC50                    =              40
2  Nc1c(C(=O)Nc2ccc(F)cc2Cl)sc2nc(-c3ccc(F)cc3)ccc12              MIC50                    =              80
3  Nc1c(C(=O)Nc2ccc(Cl)cc2F)sc2nc(-c3cccs3)ccc12              MIC50                    =              10
4  Nc1c(C(=O)Nc2cccc(Cl)c2)sc2nc(-c3ccncc3)ccc12              MIC50                    >             160
5  O=C(CCCC(=O)Nc1ccc(Br)cc1)N/N=C/c1c2ccccc2cc2ccccc12              MIC50                    =              10
6  Nc1c(C(=O)Nc2cc(Cl)ccc2Cl)sc2nc(-c3cccs3)ccc12              MIC50                    =              10
